# credit: patent US20230272055A1

assayed system: T1, human mutCALR on BaF3 cells stably expressing human MPL and human mutCALR (MPL-mutCALR cells) (human)
T1 construct: also called mutant calreticulin
T1 chain: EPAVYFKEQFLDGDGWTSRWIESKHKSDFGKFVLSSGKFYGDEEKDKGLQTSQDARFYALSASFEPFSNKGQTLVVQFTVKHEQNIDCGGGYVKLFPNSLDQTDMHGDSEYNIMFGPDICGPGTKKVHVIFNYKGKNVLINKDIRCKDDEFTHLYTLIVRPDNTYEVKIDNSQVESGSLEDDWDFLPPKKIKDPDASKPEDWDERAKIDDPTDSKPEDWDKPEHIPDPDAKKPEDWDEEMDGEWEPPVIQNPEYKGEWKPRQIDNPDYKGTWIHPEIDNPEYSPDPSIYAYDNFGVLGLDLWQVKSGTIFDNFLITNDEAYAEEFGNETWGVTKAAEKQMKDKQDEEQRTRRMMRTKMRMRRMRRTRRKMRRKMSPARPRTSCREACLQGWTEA
test: flow cytometry, BaF3 MPL-mutCALR cells

{"binder": "anti-mutCALR antibody clone 75 (antibody, human IgG1, lambda, N297A, V domains shown) VH: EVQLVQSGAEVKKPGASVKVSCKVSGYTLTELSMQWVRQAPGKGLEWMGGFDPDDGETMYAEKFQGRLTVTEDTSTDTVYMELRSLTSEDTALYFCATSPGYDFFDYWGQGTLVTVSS VL: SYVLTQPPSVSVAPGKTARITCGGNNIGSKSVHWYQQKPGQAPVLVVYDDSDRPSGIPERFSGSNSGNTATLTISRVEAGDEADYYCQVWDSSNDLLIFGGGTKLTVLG", "MPL-mutCALR AUC": 84900}
{"binder": "anti-mutCALR antibody clone 67 (antibody, human IgG1, lambda, N297A, V domains shown) VH: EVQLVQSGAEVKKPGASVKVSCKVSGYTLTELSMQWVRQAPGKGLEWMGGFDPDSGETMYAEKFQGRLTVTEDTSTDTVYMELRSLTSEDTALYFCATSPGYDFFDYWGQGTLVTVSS VL: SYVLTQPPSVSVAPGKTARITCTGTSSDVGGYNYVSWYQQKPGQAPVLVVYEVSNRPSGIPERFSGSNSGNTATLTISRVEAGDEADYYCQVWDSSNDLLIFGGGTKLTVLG", "MPL-mutCALR AUC": 63900}
{"binder": "anti-mutCALR antibody clone 22 (antibody, human IgG1, lambda, V domains shown, human IgG1) VH: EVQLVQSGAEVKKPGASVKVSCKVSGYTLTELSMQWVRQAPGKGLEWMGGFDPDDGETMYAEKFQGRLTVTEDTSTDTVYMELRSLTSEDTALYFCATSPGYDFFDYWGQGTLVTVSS VL: SYVLTQPPSVSVAPGKTARITCGGNNIGSKNVHWYQQKPGQAPVLVVYDDSDRPSGIPERFSGSNSGNTATLTINRVEAGDEADYYCQVWDSSNDLLIFGGGTKLTVLG", "MPL-mutCALR AUC": 124000}
{"binder": "anti-mutCALR antibody clone 71 (antibody, human IgG1, lambda, N297A, V domains shown) VH: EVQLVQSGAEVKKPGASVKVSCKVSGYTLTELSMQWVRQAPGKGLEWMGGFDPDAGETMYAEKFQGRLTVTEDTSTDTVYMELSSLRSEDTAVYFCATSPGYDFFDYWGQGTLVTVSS VL: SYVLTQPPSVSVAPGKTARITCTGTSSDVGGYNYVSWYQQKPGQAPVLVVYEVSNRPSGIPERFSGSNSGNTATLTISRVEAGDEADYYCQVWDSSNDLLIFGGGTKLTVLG", "MPL-mutCALR AUC": 55900}
{"binder": "anti-mutCALR antibody clone 79 (antibody, human IgG1, lambda, N297A, V domains shown) VH: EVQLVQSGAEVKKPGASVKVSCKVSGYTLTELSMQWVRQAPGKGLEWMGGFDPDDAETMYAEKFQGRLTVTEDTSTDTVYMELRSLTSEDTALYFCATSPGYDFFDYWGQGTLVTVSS VL: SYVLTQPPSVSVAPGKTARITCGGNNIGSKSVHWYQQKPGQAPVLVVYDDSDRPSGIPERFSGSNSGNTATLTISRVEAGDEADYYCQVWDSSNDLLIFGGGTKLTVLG", "MPL-mutCALR AUC": 71900}
